The measured values listed here are drawn from patent US20240067747A1.

Tgt: T1, Trypsin inhibitor type 1-S from Glycine max (Sigma, T-2327) (Glycine max, UniProt P01070 25-205)
T1 construct: Non-target molecule, amine-coupled to a CM5 chip
T1 sequence (looked up): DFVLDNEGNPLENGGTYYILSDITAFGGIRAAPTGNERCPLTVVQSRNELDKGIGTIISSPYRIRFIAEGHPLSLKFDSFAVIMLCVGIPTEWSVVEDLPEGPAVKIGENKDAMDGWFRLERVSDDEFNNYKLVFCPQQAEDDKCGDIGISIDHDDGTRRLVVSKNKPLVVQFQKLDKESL
Measurement Notes: SPR, Biacore 8K, trypsin inhibitor immobilized on CM5, antibody at 1000 nM; buffer alone 13.9 RU
Quantity Kind: non-specific binding amount (RU)
Report as a plain number; the unit RU is understood.

Req: Please look up its non-specific binding amount (RU): 900727 (humanized anti-CD73 antigen-binding protein) (antibody, V domains shown) VH: QVQLVQSGAEVKKPGASVKVSCKASGYTFTSYWIHWVRQAPGQGLEWIGMIHPNSGSTYYAQKFQGRVTITVDKSTSTAYMELSSLRSEDTAVYYCARYYGSDYEWYFDVWGQGTTVTVSS VL: DIQMTQSPSSMSASVGDRVTITCKASQNVRTAVVWYQQKPGKAPKALIYLASNRHTGVPDRFSGSGSGTDFTLTISSLQPEDFATYFCLQHWNYPYTFGQGTKLEIK
Resp: 11.6

Req: Sample 900728 (humanized anti-CD73 antigen-binding protein) (antibody, V domains shown) VH: QVQLVQSGAEVKKPGASVKVSCKASGYTFTSYWIHWVRQAPGQGLEWIGMIHPNSGSTYYNEKFQGRVTMTVDKSTSTAYMELSSLRSEDTAVYYCARYYGSDYEWYFDVWGQGTTVTVSS VL: DIQMTQSPSSLSASVGDRVTITCKASQNVRTAVVWYQQKPGKAPKALIYLASNRHTGVPDRFSGSGSGTDFTLTISSLQPEDFATYYCLQHWNYPYTFGQGTKLEIK — what was its non-specific binding amount (RU)?
Resp: 13.5

Req: Looking for the measured non-specific binding amount (RU) of 900567 (human-mouse chimeric anti-CD73 antigen-binding protein expressed from 124A9 variable regions) (antibody, V domains shown) VH: QVQLQQPGAELVKPGASVKLSCKASGYTFTSYWIHWVKQRPGQGLDWIGMIHPNSGSTYYNEKFKSKATLTVDKSSSTAYMQLSSLTSEDSAVYYCARYYGSDYEWYFDVWGTGTTVTVSS VL: DIVMTQSQKFMSTSVGDRVSITCKASQNVRTAVVWYQQNPGQSPKALIYLASNRHTGVPDRFTGSGSGTDFTLTISNVHSEDLADYFCLQHWNYPYTFGGGTKLEIK , can you help?
Resp: 12.8

Req: Given the entry 900726 (humanized anti-CD73 antigen-binding protein) (antibody, V domains shown) VH: QVQLVQSGAEVKKPGASVKLSCKASGYTFTSYWIHWVRQAPGQGLEWIGMIHPNSGSTYYNEKFKGRATLTVDKSTSTAYMELSSLRSEDTAVYYCARYYGSDYEWYFDVWGQGTTVTVSS VL: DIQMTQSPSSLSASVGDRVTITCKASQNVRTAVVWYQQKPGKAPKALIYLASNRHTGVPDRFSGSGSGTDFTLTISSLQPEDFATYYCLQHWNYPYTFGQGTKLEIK , report its measured non-specific binding amount (RU).
Resp: 15.4

Req: Given 900725 (humanized anti-CD73 antigen-binding protein) (antibody, V domains shown) VH: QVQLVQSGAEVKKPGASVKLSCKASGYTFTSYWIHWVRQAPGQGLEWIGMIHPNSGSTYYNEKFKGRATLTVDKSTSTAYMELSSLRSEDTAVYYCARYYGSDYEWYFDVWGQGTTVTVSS VL: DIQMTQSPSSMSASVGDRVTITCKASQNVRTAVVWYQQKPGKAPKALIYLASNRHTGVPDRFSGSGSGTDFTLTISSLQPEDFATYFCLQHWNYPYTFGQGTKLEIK , state its recorded non-specific binding amount (RU).
Resp: 12.6
